Numbers sourced from patent US20260124192A1.

test system: HCV genotype 1b replicon; assay: microbe, parasite or virus in culture; type: cell-based, Hepatitis C Virus; conditions: Hepatitis C virus; Huh-luc/neo-ET replicon; 72 hours; luciferase; read-out: HCV 1b - EC50
metric_name: EC50 (µM)
Report the figure in µM without appending any unit label.

Solved cases (5 shown):
O=[N+]([O-])c1cccc2c1nc(-c1ccc(F)cc1)n2Cc1ccc(OCCN2CCCCC2)cc1
7.05
Nc1cccc2c1nc(-c1ccc(F)cc1)n2Cc1ccc(OCCC2CCCCC2)cc1
4.19
Nc1cccc2c1nc(-c1ccc(F)cc1)n2Cc1ccc(OCCN2CCCCC2)cc1
7.2
O=[N+]([O-])c1cccc2nc(-c3ccc(F)cc3)n(Cc3ccc(OCCN4CCCCC4)cc3)c12
2.78
Nc1cccc2nc(-c3ccc(F)cc3)n(Cc3ccc(OCCN4CCCCC4)cc3)c12
9.59

# input for lookup
Returns the measured EC50 for the input compound. Input: O=C(O)c1ccc(-c2c(CC3CCCC3)c3ccc(F)cc3n2Cc2ccc(OCCC3CCCCC3)cc2)cc1
8.43

====

test system: Huh-luc/neo-ET cells; assay: XTT cell viability assay, Huh-luc/neo-ET; assay type: cell-based; details: XTT, 72 hours, read-out: HCV 1b - TC50
Item-by-item account of CC50

COc1ccc(-c2c(Cc3ccc(OCCN4CCCCC4)cc3)c3ccc(OC)cc3n2C)cc1 [MCAA-01]
> 10 µM

Please turn your attention to the following entry.
What value of measured CC50 is listed for Cc1c(-c2ccc(O)cc2)n(Cc2ccc(OCCN3CCCCC3)cc2)c2ccc(O)cc12 [Pipendoxifene] ?
> 10 µM

====

system: MCF7 wild-type cell lines; test: MCF7 growth inhibition assay (Cell Titre Glo 2.0); format: cell-based; details: Homo sapiens, MCF7, 120 h, read-out: MCF-7 IC50 (μM)
Measured IC50 accompanies every entry in the list below.
Lab book: enter the figure in µM, no units written.

C[C@]12CC[C@@H]3c4ccc(O)cc4C[C@@H](CCCCCCCCC[S+]([O-])CCCC(F)(F)C(F)(F)F)[C@H]3[C@@H]1CC[C@@H]2O (some centres unmarked) [Fulvestrant, reference compound]
0.00089

Now let's try a different one.
Entry under review: Cc1c(-c2ccc(O)cc2)n(Cc2ccc(OCCN3CCCCC3)cc2)c2ccc(O)cc12 [Pipendoxifene] . Reported IC50?
0.00064

====

Tested on: Influenza B Victoria/Florida
Experiment: Influenza B CPE assay, MDCK
Type: cell-based
Conditions: Influenza B virus, albumin content N/A, read-out: EC50
Text: The antiviral assays were cell line based and consisted in transfecting each of the viruses tested in a compatible cell line. Upon infection and after drug treatment, viral survival and cell toxicity were reported from the readout of three different assays: cytopathic effect (CPE), viral yield reduction (VYR), or immunofluorescence (IF).
metric_name: pEC50
pEC50 is defined as minus the log10 of a concentration measured in mol/L.

Param item = Cc1c(-c2ccc(O)cc2)n(Cc2ccc(OCCN3CCCCC3)cc2)c2ccc(O)cc12 [Pipendoxifene] ; retrieve measured pEC50.
5.39

====

system: MCF7 wild-type cell lines; assay: MCF7 growth inhibition assay (Cell Titre Glo 2.0); type: cell-based; settings: Homo sapiens, MCF7, read-out: IC50, MCF7 growth inhibition
metric_name: pIC50
Interpret pIC50 as the negative base-10 log of the concentration measured in mol/L.

Any idea what its pIC50 is? The compound is C[C@]12CC[C@@H]3c4ccc(O)cc4C[C@@H](CCCCCCCCC[S+]([O-])CCCC(F)(F)C(F)(F)F)[C@H]3[C@@H]1CC[C@@H]2O (stereo partly shown) [Fulvestrant, reference compound]
9.05

====

test system: Vero 76 cells; conditions: with CPE assays (SARS-CoV-2 WA1, Delta), not converted for FBS
metric_name: CC50 (µM)
Write the value in µM as a bare number.

# input molecule: Cc1c(-c2ccc(O)cc2)n(Cc2ccc(OCCN3CCCCC3)cc2)c2ccc(O)cc12 [Pipendoxifene] ; wanted: its CC50
3.2

====

assay: in vitro; settings: human
metric_name: CC50 (nM)
Kindly provide the numeric value in nM only, without the unit symbol.

Record request: CC50 value, item Cc1c(-c2ccc(O)cc2)n(Cc2ccc(OCCN3CCCCC3)cc2)c2ccc(O)cc12 [Pipendoxifene]
1000

====

test: in vitro; settings: dog, CC50 (μM), MDCK; with Influenza B CPE assays
metric_name: CC50 (µM)
Respond with the bare value in µM.

CC50 for Cc1c(-c2ccc(O)cc2)n(Cc2ccc(OCCN3CCCCC3)cc2)c2ccc(O)cc12 [Pipendoxifene] ?
9.8

====

test: Cytotoxicity, neutral red dye-uptake, HG23; format: cell-based; settings: human, HG23 cells, with Norwalk Virus CPE assay, not converted
metric_name: CC50 (µM)
// note: answer is a bare numeric in µM

State the recorded CC50 for this entry: Cc1c(-c2ccc(O)cc2)n(Cc2ccc(OCCN3CCCCC3)cc2)c2ccc(O)cc12 [Pipendoxifene]
18

====

Below is a list of entries, each paired with its recorded CC50 at 72 h value.
assay: XTT cell viability assay, Huh-luc/neo-ET; format: cell-based; settings: human, Huh-luc/neo-ET cells, XTT, 72 hours, read-out: HCV 1b - TC50

These recorded examples may help you get a feel for the data.
Nc1cccc2c1nc(-c1ccc(F)cc1)n2Cc1ccc(OCCC2CCCCC2)cc1 [MCAA-11]
5.82 µM
CC(C)OC(=O)[C@H](C)N[P@](=O)(OC[C@H]1O[C@@H](n2ccc(=O)[nH]c2=O)[C@](C)(F)[C@@H]1O)Oc1ccccc1 [Sofosbuvir, reference compound]
> 1 µM
O=[N+]([O-])c1cccc2nc(-c3ccc(F)cc3)n(Cc3ccc(OCCC4CCCCC4)cc3)c12 [MCAA-14]
> 10 µM

Find the recorded CC50 at 72 h belonging to Fc1ccc(-c2cc3sccc3n2Cc2ccc(OCCC3CCCCC3)cc2)cc1 [MCAA-07] and report it.
> 10 µM

Returns the measured CC50 at 72 h for the input compound. Input: O=C(O)c1ccc(-c2c(CC3CCCC3)c3ccc(F)cc3n2Cc2ccc(OCCN3CCCCC3)cc2)cc1 [MCAA-02]
> 10 µM

Recorded CC50 at 72 h of O=[N+]([O-])c1cccc2c1nc(-c1ccc(F)cc1)n2Cc1ccc(OCCC2CCCCC2)cc1 [MCAA-15] , please.
> 10 µM

Recorded CC50 at 72 h of O=[N+]([O-])c1cccc2c1nc(-c1ccc(F)cc1)n2Cc1ccc(OCCN2CCCCC2)cc1 [MCAA-13] , please.
> 10 µM

Suppose we examine the compound Nc1cccc2nc(-c3ccc(F)cc3)n(Cc3ccc(OCCC4CCCCC4)cc3)c12 [MCAA-09] ; what CC50 at 72 h value has been reported?
> 10 µM

Quick one: CC50 at 72 h of Fc1ccc(-c2cc3sccc3n2Cc2ccc(OCCN3CCCCC3)cc2)cc1 [MCAA-06] ?
> 10 µM

Reported CC50 at 72 h, compound Nc1cccc2nc(-c3ccc(F)cc3)n(Cc3ccc(OCCN4CCCCC4)cc3)c12 [MCAA-08] : ____
> 10 µM

For the compound shown here, Cc1c(-c2ccc(O)cc2)n(Cc2ccc(OCCC3CCCCC3)cc2)c2ccc(O)cc12 [MCAA-04] , give the reported CC50 at 72 h.
> 10 µM

If you can, please state the reported CC50 at 72 h value of COc1ccc(-c2c(Cc3ccc(OCCC4CCCCC4)cc3)c3ccc(OC)cc3n2C)cc1 [MCAA-05] .
> 10 µM

Any idea what its CC50 at 72 h is? The compound is Nc1cccc2c1nc(-c1ccc(F)cc1)n2Cc1ccc(OCCN2CCCCC2)cc1 [MCAA-10]
> 10 µM

Which CC50 at 72 h value belongs to O=C(O)c1ccc(-c2c(CC3CCCC3)c3ccc(F)cc3n2Cc2ccc(OCCC3CCCCC3)cc2)cc1 [MCAA-03] ?
> 10 µM

I would be grateful if you could share the reported CC50 at 72 h for O=[N+]([O-])c1cccc2nc(-c3ccc(F)cc3)n(Cc3ccc(OCCN4CCCCC4)cc3)c12 [MCAA-12] .
> 10 µM

====

tested on: SARS-CoV-2 Omicron (B.1.1.529); experiment: SARS-CoV-2 IF assay, HeLa-ACE2 (Method 1); format: cell-based; settings: Severe acute respiratory syndrome coronavirus 2, HeLa-ACE2, SARS-CoV-2 Omicron (B.1.1.529), 2% FBS
metric_name: pEC50
Field pEC50 (float): negative decimal logarithm of the concentration in molar.

Using the record for Cc1c(-c2ccc(O)cc2)n(Cc2ccc(OCCN3CCCCC3)cc2)c2ccc(O)cc12 [Pipendoxifene] , report its pEC50.
6.12

====

test system: MRC-5 cells; assay: Cytotoxicity, XTT, MRC-5; conditions: read-out: CoV229E - TC50; MRC-5; XTT; six days
metric_name: CC50

Which CC50 is reported with MRC-5 cells for this entry: COc1ccc(-c2c(Cc3ccc(OCCN4CCCCC4)cc3)c3ccc(OC)cc3n2C)cc1 [MCAA-01] ?
> 5 µM
